Quick reference for Kd among some binders
- study system: DD(E) fragment of fibrin
- assay protocol: affinity to DD(E) fragment of fibrin
Starred links: 1 amine or outer side, 2 acyl side, 3 side chain; linkers in the order of their positions; H or OH if unused. Positions of bridges follow the written chain, without caps; N, C: chain ends. Non-standard residues stand in square brackets, D forms with d. No end group written: not given here. Phe(4-OMe) = COc1ccc(C[C@H](N[*:1])C(=O)[*:2])cc1; Tyr(3-I) = N[C@@H](Cc1ccc(O)c(I)c1)C(=O)O; Phe(3-Me) = Cc1cccc(C[C@H](N)C(=O)O)c1; Hyp = O=C(O)[C@@H]1C[C@@H](O)CN1; Nle = CCCC[C@H](N)C(=O)O; Cmp = not defined here

The following binders have reported results that may help.
binder: FHC[Hyp][Tyr(3-I)]DLCH[Nle] (disulfide 3-8 (inferred); not fully specified) [F-H-C-Hyp-Y(3-I)-D-L-C-H-Nle]
Kd: < 100 nM
--
binder: [Tyr(3-I)]HC[Hyp][Tyr(3-I)]DLCHI (disulfide 3-8 (inferred)) [Y(3-I)-H-C-Hyp-Y(3-I)-D-L-C-H-I]
Kd: < 100 nM
--
binder: LPCDYYGTC[MeL][Cmp] (cysteine pairing not given here; reading uncertain; also: printed as L-P-C-D-Y-Y-G-T-C-MeL-Cmp) [L-P-C-D-Y-Y-G-T-C-MeL-Cmp]
Kd: < 10000 nM

In: Provide only the value of recorded Kd for [Phe(3-Me)]HC[Hyp][Tyr(3-I)]DLCHI (disulfide 3-8 (inferred)) [F(3-Me)-H-C-Hyp-Y(3-I)-D-L-C-H-I]
Out: < 100 nM

In: Provide only the value of recorded Kd for FHC[Hyp][Tyr(3-I)]DLCH[Phe(4-OMe)] (disulfide 3-8 (inferred)) [F-H-C-Hyp-Y(3-I)-D-L-C-H-F(4-OMe)]
Out: < 100 nM
